Kindly supply the reported Dmax values for the records listed here.
- Subject of test: Helios (Homo sapiens, UniProt Q96SW2+Q9UKS7)
- Construct: fluorescently labelled antibodies against Helios and Ikaros; endogenous in cells; host or cells: Jurkat cells
- Sequence (Q9UKS7 whole entry): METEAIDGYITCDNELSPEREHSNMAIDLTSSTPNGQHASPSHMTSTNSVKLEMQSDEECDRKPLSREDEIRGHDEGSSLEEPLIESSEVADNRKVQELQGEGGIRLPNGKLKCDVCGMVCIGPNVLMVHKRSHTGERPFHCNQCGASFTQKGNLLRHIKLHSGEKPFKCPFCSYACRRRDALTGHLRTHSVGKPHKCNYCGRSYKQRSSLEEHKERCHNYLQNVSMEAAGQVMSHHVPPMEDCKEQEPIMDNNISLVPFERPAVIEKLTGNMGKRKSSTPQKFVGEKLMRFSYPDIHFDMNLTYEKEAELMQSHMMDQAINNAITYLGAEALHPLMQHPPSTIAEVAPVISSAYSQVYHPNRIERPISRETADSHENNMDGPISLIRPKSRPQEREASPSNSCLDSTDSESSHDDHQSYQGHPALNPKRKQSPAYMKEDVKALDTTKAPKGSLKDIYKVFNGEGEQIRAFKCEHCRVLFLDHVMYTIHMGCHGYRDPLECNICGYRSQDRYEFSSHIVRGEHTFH
- Sequence (Q96SW2 whole entry): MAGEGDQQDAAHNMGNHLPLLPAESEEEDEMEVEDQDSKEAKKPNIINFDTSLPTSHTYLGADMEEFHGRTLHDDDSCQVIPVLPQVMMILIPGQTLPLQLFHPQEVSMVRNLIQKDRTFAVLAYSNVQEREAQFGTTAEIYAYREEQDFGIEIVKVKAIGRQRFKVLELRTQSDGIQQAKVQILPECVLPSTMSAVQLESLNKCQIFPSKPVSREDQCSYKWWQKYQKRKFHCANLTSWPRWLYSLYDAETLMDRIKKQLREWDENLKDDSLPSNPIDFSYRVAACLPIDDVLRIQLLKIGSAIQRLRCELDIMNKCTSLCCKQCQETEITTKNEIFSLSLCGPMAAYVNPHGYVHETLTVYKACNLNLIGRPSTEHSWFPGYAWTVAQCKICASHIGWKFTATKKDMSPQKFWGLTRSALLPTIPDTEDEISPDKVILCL
- Sequence (Q16531 whole entry partner): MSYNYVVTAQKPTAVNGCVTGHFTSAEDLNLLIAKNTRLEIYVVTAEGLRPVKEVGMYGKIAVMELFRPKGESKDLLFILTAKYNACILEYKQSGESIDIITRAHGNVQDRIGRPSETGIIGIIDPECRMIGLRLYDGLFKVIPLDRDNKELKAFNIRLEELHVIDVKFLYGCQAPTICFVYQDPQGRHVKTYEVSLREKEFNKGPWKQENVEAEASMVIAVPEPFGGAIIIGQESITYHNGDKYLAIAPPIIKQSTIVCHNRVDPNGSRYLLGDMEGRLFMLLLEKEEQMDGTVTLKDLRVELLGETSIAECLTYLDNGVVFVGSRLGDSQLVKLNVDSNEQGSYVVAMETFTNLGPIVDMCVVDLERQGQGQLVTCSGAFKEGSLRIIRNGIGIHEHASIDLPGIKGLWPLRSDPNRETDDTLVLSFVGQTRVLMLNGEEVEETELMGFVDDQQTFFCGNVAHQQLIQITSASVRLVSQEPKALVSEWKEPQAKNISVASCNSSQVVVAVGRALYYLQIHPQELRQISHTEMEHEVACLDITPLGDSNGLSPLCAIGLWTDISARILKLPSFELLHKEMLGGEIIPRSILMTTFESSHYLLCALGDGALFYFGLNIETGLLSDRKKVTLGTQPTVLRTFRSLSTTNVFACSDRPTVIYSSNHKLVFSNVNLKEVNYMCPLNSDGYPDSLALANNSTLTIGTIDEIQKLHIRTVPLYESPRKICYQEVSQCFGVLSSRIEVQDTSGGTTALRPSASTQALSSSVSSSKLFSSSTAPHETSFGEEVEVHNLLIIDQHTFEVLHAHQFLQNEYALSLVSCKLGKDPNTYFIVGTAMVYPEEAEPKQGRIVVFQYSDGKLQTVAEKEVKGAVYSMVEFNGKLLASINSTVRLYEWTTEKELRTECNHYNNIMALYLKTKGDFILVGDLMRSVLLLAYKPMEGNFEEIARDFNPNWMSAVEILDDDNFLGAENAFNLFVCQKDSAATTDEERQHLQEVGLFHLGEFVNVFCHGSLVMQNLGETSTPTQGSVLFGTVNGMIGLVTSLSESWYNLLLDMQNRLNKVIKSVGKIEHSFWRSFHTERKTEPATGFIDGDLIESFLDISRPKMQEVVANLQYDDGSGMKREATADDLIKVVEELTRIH
- Procedure text: Helios Cellular Degradation Assay (flow cytometry, Helios-PE antibody staining, 72 h)
- Assay type: cell-based
- Condition description: Jurkat, Jurkat cells, 72 h incubation, flow cytometry; read-out: Helios Dmax
One number for each entry, in %.

Quick batch: Dmax for everything below.
1. CN1CCC[C@H]1CC1CCCCN1Cc1ccnc(-c2ccc3c(c2)CN(C2CCC(=O)NC2=O)C3=O)c1 (stereo partly shown)
2. O=C1CCC(N2Cc3cc(-c4cc(CNCCc5ccccc5Cl)ccn4)ccc3C2=O)C(=O)N1 (stereo not shown)
3. O=C1CCC(N2Cc3cc(-c4cc(CNCCc5ccc(O)cc5)ccn4)ccc3C2=O)C(=O)N1 (stereo not shown)
4. O=C1CCC(N2Cc3cc(-c4cc(CN5CCC6(CC5)CC6)ccn4)ccc3C2=O)C(=O)N1 (stereo not shown)
5. COc1ccc(CN(C)Cc2ccnc(-c3ccc4c(c3)CN(C3CCC(=O)NC3=O)C4=O)c2)cn1 (stereo not shown)
6. O=C1CCC(N2Cc3cc(-c4nccc(CN5CC(c6cccnc6)C5)c4F)ccc3C2=O)C(=O)N1 (stereo not shown)
7. O=C1CCC(N2Cc3cc(-c4cc(CN5CC[C@H](c6ccccc6)C5)ccn4)ccc3C2=O)C(=O)N1 (stereo partly shown)

46
103
94
84
77
41
82

====

- Subject of test: Helios (Homo sapiens, UniProt Q96SW2+Q9UKS7)
- Construct: fluorescently labelled antibodies against Helios and Ikaros; endogenous in cells; host or cells: Jurkat cells
- Procedure text: Helios Cellular Degradation Assay (flow cytometry, Helios-PE antibody staining, 72 h)
- Format: cell-based
- Condition description: Jurkat cells, 72 h incubation, flow cytometry
Kindly supply the reported DC50 values for the records listed here.
One number for each entry, in nM.

| Compound | DC50 (nM) |
| --- | --- |
| O=C1CCC(N2Cc3cc(-c4cc(CN5CC[C@@H](c6ccccc6)C5)ccn4)ccc3C2=O)C(=O)N1 (stereo partly shown) | 25 |
| O=C1CCC(N2Cc3cc(-c4cc(CNC5CCCCC5)ccn4)ccc3C2=O)C(=O)N1 (stereo not shown) | 29 |
| CN(Cc1ccc(F)cc1)Cc1ccnc(-c2ccc3c(c2)CN(C2CCC(=O)NC2=O)C3=O)c1 (stereo not shown) | 226 |
| O=C1CCC(N2Cc3cc(-c4cc(CN5CCC[C@@H](c6ccccc6)C5)ccn4)ccc3C2=O)C(=O)N1 (stereo partly shown) | 1310 |
| O=C1CCC(N2Cc3cc(-c4nccc(CN5CCC5c5ccccc5)c4F)ccc3C2=O)C(=O)N1 (stereo not shown) | 120 |
| CC1CCN(Cc2ccnc(-c3ccc4c(c3)CN(C3CCC(=O)NC3=O)C4=O)c2)CC1 (stereo not shown) | 36 |
| CCN(C)Cc1ccnc(-c2ccc3c(c2)CN(C2CCC(=O)NC2=O)C3=O)c1 (stereo not shown) [Example 6] | 28 |
| CN(Cc1ccnc(-c2ccc3c(c2)CN(C2CCC(=O)NC2=O)C3=O)c1)CC1CCCC1 (stereo not shown) | 78 |
| CN(Cc1ccccc1)Cc1ccnc(-c2ccc3c(c2)CN(C2CCC(=O)NC2=O)C3=O)c1 (stereo not shown) | 62 |
| O=C1CCC(N2Cc3cc(-c4cc(CN5CCC[C@@H]5c5ccccc5)ccn4)ccc3C2=O)C(=O)N1 (stereo partly shown) | 16 |

Quick batch: DC50 for everything below.
1. C[C@@H](c1ccccc1)N(C)Cc1ccnc(-c2ccc3c(c2)CN(C2CCC(=O)NC2=O)C3=O)c1 (stereo partly shown)
2. CN(Cc1ccnc(-c2ccc3c(c2)CN(C2CCC(=O)NC2=O)C3=O)c1)CC1CCCCC1 (stereo not shown)
3. O=C1CCC(N2Cc3cc(-c4cc(CNCCOc5ccccc5)ccn4)ccc3C2=O)C(=O)N1 (stereo not shown)

[84, 82, 36]

====

Kindly supply the reported Dmax values for the records listed here.
- Subject of test: Ikaros (Homo sapiens, UniProt Q13422)
- Construct: fluorescently labelled antibodies against Helios and Ikaros; endogenous in cells; host or cells: Jurkat cells
- Sequence (Q13422 whole entry, one chain of several): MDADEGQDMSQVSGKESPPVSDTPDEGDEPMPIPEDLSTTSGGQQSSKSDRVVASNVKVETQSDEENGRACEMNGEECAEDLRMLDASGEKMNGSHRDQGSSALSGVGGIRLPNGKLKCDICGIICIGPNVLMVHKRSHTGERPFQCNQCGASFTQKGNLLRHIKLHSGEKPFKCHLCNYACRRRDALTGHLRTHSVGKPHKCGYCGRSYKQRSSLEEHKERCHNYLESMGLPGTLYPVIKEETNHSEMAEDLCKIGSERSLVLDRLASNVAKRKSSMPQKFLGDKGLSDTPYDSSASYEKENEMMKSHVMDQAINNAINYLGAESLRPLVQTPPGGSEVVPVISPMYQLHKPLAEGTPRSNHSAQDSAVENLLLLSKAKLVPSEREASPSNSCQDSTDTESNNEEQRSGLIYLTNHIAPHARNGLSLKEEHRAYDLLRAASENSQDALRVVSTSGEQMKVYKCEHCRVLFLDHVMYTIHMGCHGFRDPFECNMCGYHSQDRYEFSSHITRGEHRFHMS
- Procedure text: Helios Cellular Degradation Assay, Ikaros readout (flow cytometry, Ikaros-Alexa488 antibody staining, 72 h)
- Assay type: cell-based
- Condition description: Jurkat, Jurkat cells, 72 h incubation, flow cytometry; read-out: Ikaros Dmax
One number for each entry, in %.

Below: 5 molecules and their reported Dmax.
| Molecule | Dmax, % |
| --- | --- |
| O=C1CCC(N2Cc3cc(-c4cc(CNCC5CCO5)ccn4)ccc3C2=O)C(=O)N1 (centres unmarked) [Example 129] | 2 |
| CN(Cc1ccnc(-c2ccc3c(c2)CN(C2CCC(=O)NC2=O)C3=O)c1)Cc1cncn1C (centres unmarked) [Example 174] | 20 |
| Cc1ccc(CNCc2ccnc(-c3ccc4c(c3)CN(C3CCC(=O)NC3=O)C4=O)c2)cc1 (centres unmarked) [Example 58] | 22 |
| O=C1CCC(N2Cc3cc(-c4cc(CN5CCC5c5ccccc5)c(Cl)cn4)ccc3C2=O)C(=O)N1 (centres unmarked) [Example 187] | 6 |
| O=C1CCC(N2Cc3cc(-c4cc(CNCCc5ccc(Cl)cc5)ccn4)ccc3C2=O)C(=O)N1 (centres unmarked) [Example 94] | 11 |

Quick batch: Dmax for everything below.
1. CN(C)[C@@H]1CCN(Cc2ccnc(-c3ccc4c(c3)CN(C3CCC(=O)NC3=O)C4=O)c2)C1 (some centres unmarked) [Example 45]
2. O=C1CCC(N2Cc3cc(-c4cc(CN5CCC(N6CCCCC6)CC5)ccn4)ccc3C2=O)C(=O)N1 (centres unmarked) [Example 17]

1: 6; 2: 11

Return reported Dmax; argument: CC1CN(Cc2ccnc(-c3ccc4c(c3)CN(C3CCC(=O)NC3=O)C4=O)c2)C1 (centres unmarked) [Example 47]
8

====

Kindly supply the reported Dmax values for the records listed here.
- Subject of test: Helios (Homo sapiens, UniProt Q96SW2+Q9UKS7)
- Construct: fluorescently labelled antibodies against Helios and Ikaros; endogenous in cells; host or cells: Jurkat cells
- Procedure text: Helios Cellular Degradation Assay (flow cytometry, Helios-PE antibody staining, 72 h)
- Assay type: cell-based
- Condition description: Jurkat, Jurkat cells, 72 h incubation, flow cytometry; read-out: Helios Dmax
- Description: Helios Cellular Degradation Assay Jurkat cells were plated at 80,000 cells/well in 40 μL RPMI+10% FBS in a 384 well cell culture plate prior to using acoustic dispensing technology for adding compound of interest. Cell cultures were incubated for 72 h at 37° C. and 5% CO2. […] Stained cells were resuspended in 25 μL of flow cytometry staining buffer (PBS+0.2% BSA) and analyzed using an Intellicyt Ique Plus flow cytometer. […]
Answers are plain numbers, in %.

Below: 8 compounds and their reported Dmax.
| Compound | Unit symbol | Dmax |
| --- | --- | --- |
| O=C1CCC(N2Cc3cc(-c4cc(CN5CC6CC5CO6)ccn4)ccc3C2=O)C(=O)N1 (stereo not shown) [Example 79] | % | 26 |
| CCN(Cc1ccncc1)Cc1ccnc(-c2ccc3c(c2)CN(C2CCC(=O)NC2=O)C3=O)c1 (stereo not shown) [Example 22] | % | 67 |
| CC(C)CCNCc1ccnc(-c2ccc3c(c2)CN(C2CCC(=O)NC2=O)C3=O)c1 (stereo not shown) [Example 97] | % | 90 |
| Cc1ccc(CNCc2ccnc(-c3ccc4c(c3)CN(C3CCC(=O)NC3=O)C4=O)c2)cc1 (stereo not shown) [Example 58] | % | 88 |
| O=C1CCC(N2Cc3cc(-c4cc(CN5CCN(c6cnccn6)CC5)ccn4)ccc3C2=O)C(=O)N1 (stereo not shown) [Example 26] | % | 6 |
| O=C1CCC(N2Cc3cc(-c4nccc(CN5CC(c6ccccc6)C5)c4F)ccc3C2=O)C(=O)N1 (stereo not shown) [Example 191] | % | 52 |
| O=C1CCC(N2Cc3cc(-c4cc(CNC5CCCC5)ccn4)ccc3C2=O)C(=O)N1 (stereo not shown) [Example 86] | % | 91 |
| CN(Cc1ccncc1)Cc1ccnc(-c2ccc3c(c2)CN(C2CCC(=O)NC2=O)C3=O)c1 (stereo not shown) [Example 160] | % | 70 |

Quick batch: Dmax for everything below.
1. CC(C)N1CCN(Cc2ccnc(-c3ccc4c(c3)CN(C3CCC(=O)NC3=O)C4=O)c2)CC1 (stereo not shown) [Example 44]
2. Cc1cccc(N2CCN(Cc3ccnc(-c4ccc5c(c4)CN(C4CCC(=O)NC4=O)C5=O)c3)CC2C)c1 (stereo not shown) [Example 27]
3. COC1(C)CN(Cc2ccnc(-c3ccc4c(c3)CN(C3CCC(=O)NC3=O)C4=O)c2)C1 (stereo not shown) [Example 196]
4. O=C1CCC(N2Cc3c(ccc(-c4cc(CN5CC(c6ccccc6)C5)ccn4)c3F)C2=O)C(=O)N1 (stereo not shown) [Example 208]
5. CC(C)OC1CN(Cc2ccnc(-c3ccc4c(c3)CN(C3CCC(=O)NC3=O)C4=O)c2)C1 (stereo not shown) [Example 130]

36
36
78
88
56

Quick batch: Dmax for everything below.
1. CN(Cc1ccoc1)Cc1ccnc(-c2ccc3c(c2)CN(C2CCC(=O)NC2=O)C3=O)c1 (stereo not shown) [Example 172]
2. Cc1ccc(CN(C)Cc2ccnc(-c3ccc4c(c3)CN(C3CCC(=O)NC3=O)C4=O)c2)cc1 (stereo not shown) [Example 161]
3. O=C1CCC(N2Cc3cc(-c4cc(CN5CCC[C@@H]5c5ccccc5)ccn4)ccc3C2=O)C(=O)N1 (stereo partly shown) [Example 134]

1. 90
2. 83
3. 95

Cited source for all entries: patent US11548870B2
